Source: PubChem BioAssay AID651819

# System: cytosolic chaperonin (CCT/TRiC complex)
# Assay text: High-Throughput Screening for Modulators of Cytosolic Chaperonin Activity; further: on the % scale 0 is the no-effect control and ±100 the full control effect
# Measurement parameters: purified chaperonin ATPase assay, HTRF ADP detection, 30 min; stronger effect = lower value
About 1,100 (0.31%) of roughly 360,000 compounds were called active. The sample as a whole holds a higher share of actives than the screen did.
Recorded activity change, one value per entry.
Write the answer as a number in %, unit excluded.

Compound	Unit name	activity change
O=C(NCCC1CCCCN1S(=O)(=O)c1ccc(Cl)cc1)C(=O)NCc1ccco1 (stereo not given)	%	2.22
O=C(CCN1C(=O)[C@@H]2Cc3ccccc3CN2C1=O)NCc1ccccc1	%	-37.1
OCC1(CCc2ccccc2)CCN(Cc2ccc3nsnc3c2)CC1	%	-4.83

# return recorded activity change for input `CCc1ccc(/C=N/NC(=O)c2ccc(OC3CCCC3)cc2)s1`
-13.3

# return recorded activity change for input `CCO[C@H]1OC(C(=O)N2CCN(Cc3ccccc3)CC2)=C[C@@H](c2cn(C(C)=O)c3ccccc23)[C@@H]1CCCO`
0.631

# return recorded activity change for input `COc1ccc(NC(=O)CSc2nnnn2-c2cccc(OC)c2)cc1`
1.8

# return recorded activity change for input `Nn1c(SCC(=O)Nc2ccc3c(c2)CCC3)nnc1C1CC1`
-0.2

# return recorded activity change for input CSCCC(=O)N1CCCC(CNC(=O)c2ccccc2Cl)C1 (stereo not given)
-0.386

# return recorded activity change for input CCc1ccc(CN(C)C(C)C(=O)Nc2ccc(S(=O)(=O)N3CCCC3)cc2)cc1 (stereo not given)
-0.65

# return recorded activity change for input COc1ccc(C2N=C(N)N=C(N)N2c2ccccc2)cc1OC (stereo not given)
-35.3

###

# System: cytosolic chaperonin (CCT/TRiC complex)
# Assay text: High-Throughput Screening for Modulators of Cytosolic Chaperonin Activity; further: on the % scale 0 is the no-effect control and ±100 the full control effect
# Measurement parameters: purified chaperonin ATPase assay, HTRF ADP detection, 30 min
Among all 360,000 compounds or so, about 1,100 (0.31%) were called active. Rule as the data show it: active = activity change below about -30%; inactive = the rest. The list comes from a sample in which actives are over-represented; it also holds close analogues and randomly drawn compounds.
Give one outcome, nothing more. List: true = active, false = inactive

Kindly provide the recorded test outcome for the following compound: `Cc1ccc2nc(SCC(=O)NC3CCCC3)[nH]c2c1`
false

###

# Tested on: cytosolic chaperonin (CCT/TRiC complex)
# Assay text: High-Throughput Screening for Modulators of Cytosolic Chaperonin Activity; further: on the % scale 0 is the no-effect control and ±100 the full control effect
# Measurement parameters: purified chaperonin ATPase assay, HTRF ADP detection, 30 min; stronger effect = lower value
The campaign covered roughly 360,000 compounds. About 1,100 (0.31%) were called active. Only a selection was taken, and actives are over-represented in it overall.
Measured parameter: activity change

Known results for compounds:
Compound	Assayed target	activity change
COc1c(Br)cc2c(C)c(C(=O)N3CCOCC3)oc2c1Br	cytosolic chaperonin (CCT/TRiC complex)	-0.84% (inactive)
O=C(NC(=O)c1cc(OCC(F)(F)F)ccc1OCC(F)(F)F)Nc1ccccc1	cytosolic chaperonin (CCT/TRiC complex)	-0.0973% (inactive)

# return recorded activity change for input `Cc1ccc(-c2c(C)n([O-])c3c([n+]2=O)CCC3)cc1`
-0.716% (inactive)

# return recorded activity change for input `O=C(CS(=O)(=O)c1ccccc1)Nc1ccc(S(=O)(=O)Nc2ccccn2)cc1`
0.548% (inactive)

# return recorded activity change for input `COc1ccc(CCNS(=O)(=O)c2ccc(Cl)s2)cc1OC`
-1.56% (inactive)

# return recorded activity change for input `COC(=O)C[C@H]1C[C@@H]2c3cc(N(C)C)ccc3O[C@@H]2[C@H](CO)O1`
-1.3% (inactive)

# return recorded activity change for input CC1=C(C(=O)NC2CC(C)(C)Cc3c2cnn3-c2ccc(C)cc2)OCCO1 (centres undefined)
-89.1% (active)

# return recorded activity change for input `COC(=O)c1ccc(S(=O)(=O)c2ccc(C(=O)OC)s2)s1`
1.17% (inactive)
